# METHOD DESCRIPTION: activity coefficient (dimensionless); of the first substance listed, at infinite dilution; xn = mol fraction of the nth substance listed
# MEASUREMENT SETUP: 312.8 K; 101 kPa; Liquid; Chromatography; x1 = 0
ENDPOINT LABEL: activity coefficient
When you answer, write just the number.

Qu. Fill in the blank: the reported activity coefficient of C1CCCCCC1 [cycloheptane] + CCCCCC[n+]1ccn(C)c1.FC(F)(F)C(F)(F)[P-](F)(F)(F)(C(F)(F)C(F)(F)F)C(F)(F)C(F)(F)F is ____.
Ans. 9.01

Qu. Fill in the blank: the reported activity coefficient of c1ccncc1 [pyridine] + CCCCCC[n+]1ccn(C)c1.FC(F)(F)C(F)(F)[P-](F)(F)(F)(C(F)(F)C(F)(F)F)C(F)(F)C(F)(F)F is ____.
Ans. 0.302

Qu. Fill in the blank: the reported activity coefficient of CC1CCCCC1 [methylcyclohexane] + CCCCCC[n+]1ccn(C)c1.FC(F)(F)C(F)(F)[P-](F)(F)(F)(C(F)(F)C(F)(F)F)C(F)(F)C(F)(F)F is ____.
Ans. 5.89

---

# METHOD DESCRIPTION: activity coefficient (dimensionless); of the first substance listed, at infinite dilution; xn = mol fraction of the nth substance listed
# MEASUREMENT SETUP: 342.75 K; 101 kPa; Liquid; Chromatography; x1 = 0
ENDPOINT LABEL: activity coefficient
When you answer, write just the number.

Qu. Fill in the blank: the reported activity coefficient of CCOCC [diethyl ether] + CCCCn1cc[n+](C)c1.O=S(=O)([N-]S(=O)(=O)C(F)(F)C(F)(F)F)C(F)(F)C(F)(F)F is ____.
Ans. 1.7

Qu. Fill in the blank: the reported activity coefficient of OCC(F)(F)F [2,2,2-trifluoroethanol] + CCCCn1cc[n+](C)c1.O=S(=O)([N-]S(=O)(=O)C(F)(F)C(F)(F)F)C(F)(F)C(F)(F)F is ____.
Ans. 0.412

Qu. Fill in the blank: the reported activity coefficient of CC1CCCC1 [methylcyclopentane] + CCCCn1cc[n+](C)c1.O=S(=O)([N-]S(=O)(=O)C(F)(F)C(F)(F)F)C(F)(F)C(F)(F)F is ____.
Ans. 6.05

Qu. Fill in the blank: the reported activity coefficient of c1ccsc1 [thiophene] + CCCCn1cc[n+](C)c1.O=S(=O)([N-]S(=O)(=O)C(F)(F)C(F)(F)F)C(F)(F)C(F)(F)F is ____.
Ans. 0.973

Qu. Fill in the blank: the reported activity coefficient of CC(C)O [propan-2-ol] + CCCCn1cc[n+](C)c1.O=S(=O)([N-]S(=O)(=O)C(F)(F)C(F)(F)F)C(F)(F)C(F)(F)F is ____.
Ans. 1.46

Qu. Fill in the blank: the reported activity coefficient of CCCCCCCCCCC [undecane] + CCCCn1cc[n+](C)c1.O=S(=O)([N-]S(=O)(=O)C(F)(F)C(F)(F)F)C(F)(F)C(F)(F)F is ____.
Ans. 45.9

Qu. Fill in the blank: the reported activity coefficient of ClC(Cl)(Cl)Cl [tetrachloromethane] + CCCCn1cc[n+](C)c1.O=S(=O)([N-]S(=O)(=O)C(F)(F)C(F)(F)F)C(F)(F)C(F)(F)F is ____.
Ans. 2.35

Qu. Fill in the blank: the reported activity coefficient of CCC[N+](=O)[O-] [1-nitropropane] + CCCCn1cc[n+](C)c1.O=S(=O)([N-]S(=O)(=O)C(F)(F)C(F)(F)F)C(F)(F)C(F)(F)F is ____.
Ans. 0.821

Qu. Fill in the blank: the reported activity coefficient of Cc1ccc(C)cc1 [1,4-dimethylbenzene] + CCCCn1cc[n+](C)c1.O=S(=O)([N-]S(=O)(=O)C(F)(F)C(F)(F)F)C(F)(F)C(F)(F)F is ____.
Ans. 2.03

Qu. Fill in the blank: the reported activity coefficient of CCC=O [propanal] + CCCCn1cc[n+](C)c1.O=S(=O)([N-]S(=O)(=O)C(F)(F)C(F)(F)F)C(F)(F)C(F)(F)F is ____.
Ans. 0.533

---

# METHOD DESCRIPTION: activity coefficient (dimensionless); of the first substance listed, at infinite dilution; xn = mol fraction of the nth substance listed
# MEASUREMENT SETUP: 342.75 K; 101 kPa; Liquid; Chromatography; x1 = 0
Label yes (1) when activity coefficient is at or above 3; anything below gets no (0).

Qu. Quick check, activity coefficient >= 3? CC(C)OC(C)C [diisopropyl ether] + CCCCn1cc[n+](C)c1.O=S(=O)([N-]S(=O)(=O)C(F)(F)C(F)(F)F)C(F)(F)C(F)(F)F
Ans. yes (1)

Qu. Quick check, activity coefficient >= 3? CCCCCCCCCCCCCC [tetradecane] + CCCCn1cc[n+](C)c1.O=S(=O)([N-]S(=O)(=O)C(F)(F)C(F)(F)F)C(F)(F)C(F)(F)F
Ans. yes (1)

Qu. Quick check, activity coefficient >= 3? CO [methanol] + CCCCn1cc[n+](C)c1.O=S(=O)([N-]S(=O)(=O)C(F)(F)C(F)(F)F)C(F)(F)C(F)(F)F
Ans. no (0)

Qu. Quick check, activity coefficient >= 3? C1CCCCC1 [cyclohexane] + CCCCn1cc[n+](C)c1.O=S(=O)([N-]S(=O)(=O)C(F)(F)C(F)(F)F)C(F)(F)C(F)(F)F
Ans. yes (1)

Qu. Quick check, activity coefficient >= 3? CCCCCC [hexane] + CCCCn1cc[n+](C)c1.O=S(=O)([N-]S(=O)(=O)C(F)(F)C(F)(F)F)C(F)(F)C(F)(F)F
Ans. yes (1)

Qu. Quick check, activity coefficient >= 3? CCCO [propan-1-ol] + CCCCn1cc[n+](C)c1.O=S(=O)([N-]S(=O)(=O)C(F)(F)C(F)(F)F)C(F)(F)C(F)(F)F
Ans. no (0)

Qu. Quick check, activity coefficient >= 3? ClCCl [dichloromethane] + CCCCn1cc[n+](C)c1.O=S(=O)([N-]S(=O)(=O)C(F)(F)C(F)(F)F)C(F)(F)C(F)(F)F
Ans. no (0)

Qu. Quick check, activity coefficient >= 3? CCN(CC)CC [triethylamine] + CCCCn1cc[n+](C)c1.O=S(=O)([N-]S(=O)(=O)C(F)(F)C(F)(F)F)C(F)(F)C(F)(F)F
Ans. yes (1)

Qu. Quick check, activity coefficient >= 3? CCCCCCCCCCCCC [tridecane] + CCCCn1cc[n+](C)c1.O=S(=O)([N-]S(=O)(=O)C(F)(F)C(F)(F)F)C(F)(F)C(F)(F)F
Ans. yes (1)

Qu. Quick check, activity coefficient >= 3? CCCCO [butan-1-ol] + CCCCn1cc[n+](C)c1.O=S(=O)([N-]S(=O)(=O)C(F)(F)C(F)(F)F)C(F)(F)C(F)(F)F
Ans. no (0)

Qu. Quick check, activity coefficient >= 3? ClC(Cl)Cl [trichloromethane] + CCCCn1cc[n+](C)c1.O=S(=O)([N-]S(=O)(=O)C(F)(F)C(F)(F)F)C(F)(F)C(F)(F)F
Ans. no (0)

Qu. Quick check, activity coefficient >= 3? Cc1cccc(C)c1 [1,3-dimethylbenzene] + CCCCn1cc[n+](C)c1.O=S(=O)([N-]S(=O)(=O)C(F)(F)C(F)(F)F)C(F)(F)C(F)(F)F
Ans. no (0)

Qu. Quick check, activity coefficient >= 3? C#CCCCC [1-hexyne] + CCCCn1cc[n+](C)c1.O=S(=O)([N-]S(=O)(=O)C(F)(F)C(F)(F)F)C(F)(F)C(F)(F)F
Ans. no (0)

Qu. Quick check, activity coefficient >= 3? CCc1ccccc1 [ethylbenzene] + CCCCn1cc[n+](C)c1.O=S(=O)([N-]S(=O)(=O)C(F)(F)C(F)(F)F)C(F)(F)C(F)(F)F
Ans. no (0)

Qu. Quick check, activity coefficient >= 3? C1CCCCCC1 [cycloheptane] + CCCCn1cc[n+](C)c1.O=S(=O)([N-]S(=O)(=O)C(F)(F)C(F)(F)F)C(F)(F)C(F)(F)F
Ans. yes (1)

Qu. Quick check, activity coefficient >= 3? c1ccncc1 [pyridine] + CCCCn1cc[n+](C)c1.O=S(=O)([N-]S(=O)(=O)C(F)(F)C(F)(F)F)C(F)(F)C(F)(F)F
Ans. no (0)

Qu. Quick check, activity coefficient >= 3? CCCC(C)=O [pentan-2-one] + CCCCn1cc[n+](C)c1.O=S(=O)([N-]S(=O)(=O)C(F)(F)C(F)(F)F)C(F)(F)C(F)(F)F
Ans. no (0)

Qu. Quick check, activity coefficient >= 3? C#CCCCCC [1-heptyne] + CCCCn1cc[n+](C)c1.O=S(=O)([N-]S(=O)(=O)C(F)(F)C(F)(F)F)C(F)(F)C(F)(F)F
Ans. yes (1)

Qu. Quick check, activity coefficient >= 3? CCC(C)=O [butanone] + CCCCn1cc[n+](C)c1.O=S(=O)([N-]S(=O)(=O)C(F)(F)C(F)(F)F)C(F)(F)C(F)(F)F
Ans. no (0)

Qu. Quick check, activity coefficient >= 3? CC(C)CO [2-methyl-1-propanol] + CCCCn1cc[n+](C)c1.O=S(=O)([N-]S(=O)(=O)C(F)(F)C(F)(F)F)C(F)(F)C(F)(F)F
Ans. no (0)

Qu. Quick check, activity coefficient >= 3? CCCCCCCCC [nonane] + CCCCn1cc[n+](C)c1.O=S(=O)([N-]S(=O)(=O)C(F)(F)C(F)(F)F)C(F)(F)C(F)(F)F
Ans. yes (1)

Qu. Quick check, activity coefficient >= 3? CCCCCCCCCCCC [dodecane] + CCCCn1cc[n+](C)c1.O=S(=O)([N-]S(=O)(=O)C(F)(F)C(F)(F)F)C(F)(F)C(F)(F)F
Ans. yes (1)

Qu. Quick check, activity coefficient >= 3? Cc1ccccc1C [1,2-dimethylbenzene] + CCCCn1cc[n+](C)c1.O=S(=O)([N-]S(=O)(=O)C(F)(F)C(F)(F)F)C(F)(F)C(F)(F)F
Ans. no (0)

Qu. Quick check, activity coefficient >= 3? C=CCCCC [hex-1-ene] + CCCCn1cc[n+](C)c1.O=S(=O)([N-]S(=O)(=O)C(F)(F)C(F)(F)F)C(F)(F)C(F)(F)F
Ans. yes (1)

Qu. Quick check, activity coefficient >= 3? CCCCCCC [heptane] + CCCCn1cc[n+](C)c1.O=S(=O)([N-]S(=O)(=O)C(F)(F)C(F)(F)F)C(F)(F)C(F)(F)F
Ans. yes (1)
